# Test system: PPARg DBDmut:RXRa IVT, anti-PPARg (DBD mutation: PPARg1 K132A/R137A, NR concentration 270 nM, RXRa partner concentration 90 nM)
# ASSAY TEXT: PBM binding z-score (relative to random genomic background probes); higher = stronger binding; sequences stand for … in GC…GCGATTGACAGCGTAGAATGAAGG
Would you please tag the item Fulfilled when its PBM binding z-score is 0.2 or above, and Not fulfilled when it is below?

{"SEQUENCE CODE": "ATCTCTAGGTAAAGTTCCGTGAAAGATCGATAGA", "CLASS LABEL": "Fulfilled"}
{"SEQUENCE CODE": "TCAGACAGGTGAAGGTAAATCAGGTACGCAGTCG", "CLASS LABEL": "Not fulfilled"}
{"SEQUENCE CODE": "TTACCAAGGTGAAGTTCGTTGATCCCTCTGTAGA", "CLASS LABEL": "Fulfilled"}
{"SEQUENCE CODE": "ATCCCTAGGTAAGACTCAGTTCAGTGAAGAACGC", "CLASS LABEL": "Not fulfilled"}
{"SEQUENCE CODE": "ATCTCTAGGTATGACTCAGTTCAGTGAAGAACGC", "CLASS LABEL": "Fulfilled"}

Now consider a different sequence.
IN: Tell me whether PBM binding z-score is at least 0.2 here: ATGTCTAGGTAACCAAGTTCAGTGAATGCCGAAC
OUT: Not fulfilled

* * *

# Test system: RARb homodimer (NR concentration 270 nM)
# ASSAY TEXT: PBM binding z-score (relative to random genomic background probes); higher = stronger binding; sequences stand for … in GC…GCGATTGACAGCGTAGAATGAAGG
ENDPOINT: PBM binding z-score

{"SEQUENCE CODE": "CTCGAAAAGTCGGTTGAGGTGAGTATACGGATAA", "PBM binding z-score": 0.0667}
{"SEQUENCE CODE": "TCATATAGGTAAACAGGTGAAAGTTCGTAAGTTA", "PBM binding z-score": 1.49}
{"SEQUENCE CODE": "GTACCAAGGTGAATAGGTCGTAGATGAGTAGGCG", "PBM binding z-score": 1.92}
{"SEQUENCE CODE": "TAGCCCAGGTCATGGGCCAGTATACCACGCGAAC", "PBM binding z-score": 2.61}
{"SEQUENCE CODE": "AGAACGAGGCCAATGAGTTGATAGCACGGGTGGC", "PBM binding z-score": 0.127}

Please state PBM binding z-score for every sequence in the list that follows.
1. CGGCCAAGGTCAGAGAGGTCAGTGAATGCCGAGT
2. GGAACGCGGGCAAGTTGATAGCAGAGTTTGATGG
3. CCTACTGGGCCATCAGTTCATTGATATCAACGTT
4. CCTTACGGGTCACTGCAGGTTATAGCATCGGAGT
5. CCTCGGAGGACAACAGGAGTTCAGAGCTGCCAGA
6. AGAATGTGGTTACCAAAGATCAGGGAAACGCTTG
7. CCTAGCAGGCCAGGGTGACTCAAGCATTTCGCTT

OUT:
[5.45, -0.349, 0.932, 3.23, 1.91, -0.487, 0.018]

* * *

# System: LXRa:RXRa (NR concentration 270 nM, RXRa partner concentration 90 nM)
# ASSAY TEXT: PBM binding z-score (relative to random genomic background probes); higher = stronger binding; sequences stand for … in GC…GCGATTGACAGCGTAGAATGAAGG
So basically: PBM binding z-score at 0.7 or higher? That is Fulfilled. Lower than 0.7? That is Not fulfilled.

IN: Can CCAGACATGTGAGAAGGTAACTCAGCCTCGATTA be said to have PBM binding z-score at or above 0.7?
OUT: Not fulfilled

IN: // query: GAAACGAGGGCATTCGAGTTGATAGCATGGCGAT
OUT: Fulfilled

IN: Check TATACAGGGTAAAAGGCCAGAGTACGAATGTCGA too.
OUT: Fulfilled

IN: # iterate: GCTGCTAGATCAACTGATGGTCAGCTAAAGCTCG
OUT: Not fulfilled

IN: Try this sequence too: TGTCAAAGTTCAAAGGTAATGTAAGTATCCACAC
OUT: Fulfilled

IN: Proceed to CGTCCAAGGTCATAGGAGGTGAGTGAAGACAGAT
OUT: Fulfilled

* * *

# Tested on: PXR homodimer (NR concentration 270 nM)
# ASSAY TEXT: PBM binding z-score (relative to random genomic background probes); higher = stronger binding; sequences stand for … in GC…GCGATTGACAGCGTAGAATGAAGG
Give measured PBM binding z-score for each item. Keep answers brief.

Field: example entries. Status: answers known.
{"SEQUENCE CODE": "TAGCCTAGGTCATTGGGCCAGTAAAGTACGCATC", "READOUT VALUE": -0.454}
{"SEQUENCE CODE": "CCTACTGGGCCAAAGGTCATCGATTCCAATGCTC", "READOUT VALUE": 0.811}
{"SEQUENCE CODE": "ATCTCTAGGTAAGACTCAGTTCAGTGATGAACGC", "READOUT VALUE": 1.63}
{"SEQUENCE CODE": "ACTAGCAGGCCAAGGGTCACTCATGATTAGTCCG", "READOUT VALUE": -0.0152}
{"SEQUENCE CODE": "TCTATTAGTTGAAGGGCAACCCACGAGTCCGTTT", "READOUT VALUE": 1.09}

Hi, could you look up PBM binding z-score for each item in my list?
1. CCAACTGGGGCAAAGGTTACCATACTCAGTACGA
2. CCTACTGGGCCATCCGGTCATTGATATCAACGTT
3. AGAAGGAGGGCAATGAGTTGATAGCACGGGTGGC
4. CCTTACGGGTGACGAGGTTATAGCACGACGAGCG
5. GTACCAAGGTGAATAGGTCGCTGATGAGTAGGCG

OUT:
0.017
-0.0108
4.17
-0.0569
-0.637

* * *

# Test system: PPARa:RXRa (NR concentration 270 nM, RXRa partner concentration 90 nM)
# ASSAY TEXT: PBM binding z-score (relative to random genomic background probes); higher = stronger binding; sequences stand for … in GC…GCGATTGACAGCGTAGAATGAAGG
Label rule, in plain words: PBM binding z-score of 3 and up is 1 (yes), under 3 is 0 (no).

Reference set, count: 5
{"SEQUENCE CODE": "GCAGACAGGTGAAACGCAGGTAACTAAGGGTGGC", "CLASS LABEL": "0 (no)"}
{"SEQUENCE CODE": "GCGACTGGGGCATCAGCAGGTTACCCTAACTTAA", "CLASS LABEL": "0 (no)"}
{"SEQUENCE CODE": "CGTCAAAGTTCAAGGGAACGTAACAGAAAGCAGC", "CLASS LABEL": "1 (yes)"}
{"SEQUENCE CODE": "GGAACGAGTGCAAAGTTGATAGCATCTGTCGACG", "CLASS LABEL": "0 (no)"}
{"SEQUENCE CODE": "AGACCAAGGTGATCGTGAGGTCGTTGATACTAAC", "CLASS LABEL": "0 (no)"}

IN: Please indicate if the recorded PBM binding z-score for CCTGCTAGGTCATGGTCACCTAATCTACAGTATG meets or exceeds 3.
OUT: 1 (yes)

IN: Please do the same for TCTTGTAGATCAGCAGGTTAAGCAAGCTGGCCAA as well.
OUT: 0 (no)

IN: Another sequence to look at: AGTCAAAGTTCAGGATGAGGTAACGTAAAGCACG
OUT: 1 (yes)

IN: What do we get for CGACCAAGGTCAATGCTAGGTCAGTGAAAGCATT ?
OUT: 1 (yes)

IN: Now give it for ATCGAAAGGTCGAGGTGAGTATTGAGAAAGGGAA too.
OUT: 1 (yes)

IN: What about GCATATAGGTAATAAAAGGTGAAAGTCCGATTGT ?
OUT: 0 (no)

IN: Queued: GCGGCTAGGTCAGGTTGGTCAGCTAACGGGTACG
OUT: 0 (no)

IN: Same thing, different sequence: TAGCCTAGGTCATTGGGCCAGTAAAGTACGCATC
OUT: 1 (yes)

IN: Can you check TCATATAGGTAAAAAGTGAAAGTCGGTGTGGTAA next?
OUT: 0 (no)

IN: Likewise for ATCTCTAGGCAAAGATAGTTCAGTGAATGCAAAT ?
OUT: 0 (no)

IN: Let us now turn to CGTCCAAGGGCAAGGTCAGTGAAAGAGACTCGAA
OUT: 0 (no)

IN: What about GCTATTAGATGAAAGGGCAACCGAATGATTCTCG ?
OUT: 0 (no)

IN: Request: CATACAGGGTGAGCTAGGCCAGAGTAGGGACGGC
OUT: 0 (no)

IN: Consider next the sequence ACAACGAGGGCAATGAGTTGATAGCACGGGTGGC in the same way.
OUT: 0 (no)

IN: Would you kindly repeat that for GCTCGGAGGCCAAGGTCAGAGCTTTGTCCGTAGA ?
OUT: 0 (no)

IN: Repeat with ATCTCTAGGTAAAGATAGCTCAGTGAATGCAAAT
OUT: 0 (no)

IN: Next sequence: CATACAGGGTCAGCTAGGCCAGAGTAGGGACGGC
OUT: 1 (yes)

IN: Same question, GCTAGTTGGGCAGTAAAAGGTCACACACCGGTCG this time
OUT: 1 (yes)

IN: Query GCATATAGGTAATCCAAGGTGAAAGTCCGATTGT next
OUT: 0 (no)

IN: Input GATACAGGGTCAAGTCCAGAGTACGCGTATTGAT
OUT: 1 (yes)
